Test system: EKVX NSCLC
Assay: NCI-60 one-dose screen, 48 h (100 = growth as untreated, 0 = no growth, -100 = all killed)
Settings: 10 µM unless noted
The panel holds about 83,000 compounds, 20% with a hit somewhere; the sample as a whole holds those more often.
Each entry below lists one item and its recorded growth value.

COMPOUND	growth / %
CC1=NN(c2ccccc2)C(=O)C1C(=O)c1ccccc1 (configuration not stated)	95
Cc1nn(-c2ccccc2)nc1C(=O)Nc1ccccc1C(=O)NCC1CC1	79.4
CCCCOc1cc(C(=O)NCCN(CC)CC)c2ccccc2n1	74.9
S=C1SCN(Cc2ccccc2)CN1Cc1ccccc1	98.5
c1ccc(N(c2ccccc2)c2ccccc2)cc1	101
O=[N+]([O-])c1ccc2nc3c4ccccc4c4ccccc4c3nc2c1	81.8
CC(C)(C)c1ccc(O)c(CNC2CCCCC2)c1	108
O=C(c1ccc(Cl)cc1)C(NCCO)c1ccc(Cl)cc1 (configuration not stated)	103
N/C(=N\N=C\c1ccc2c(c1)OCO2)N/N=C\c1ccc2c(c1)OCO2	113
Oc1c(CN2CCCCC2)ccc2cccnc12	71.3
COc1cc2nc(N3CCN(C(=O)C4COc5ccccc5O4)CC3)nc(N)c2cc1OC (configuration not stated)	97.5
Nc1ccccc1Nc1ccccc1	96.4

* * *

Tested on: DU-145 prostate
Assay: NCI-60 one-dose screen, 48 h (100 = growth as untreated, 0 = no growth, -100 = all killed)
Conditions: 10 µM
The panel holds about 83,000 compounds, 20% with a hit somewhere; the sample as a whole holds those more often.

COMPOUND	VALUE_UNIT	growth
O=C(O)c1sccc1O	%	83.1
CCCCCCCCCCCCCCCc1ccc(Cl)c(O)c1Cl (tested in a mixture with another compound)	%	106
Cc1[nH]c(-c2nc3ccccc3[nH]2)c(C)c1C(=O)NC(C)C1CCCCC1 (stereo not given)	%	98.8
CNC(=O)c1cc(Oc2ccc(CC(=O)Nc3cc(C(C)(C)C)nn3C)cc2)ccn1	%	76.3
CC#C[C@]1(O)CC[C@H]2[C@@H]3CCC4=CC(=O)CCC4=C3[C@@H](c3ccc4c(c3)OCO4)C[C@@]21C	%	101

* * *

System: OVCAR-4 ovarian
Assay: NCI-60 one-dose screen, 48 h (100 = growth as untreated, 0 = no growth, -100 = all killed)
Settings: 10 µM
This is part of a sample that, as a whole, favours compounds with a hit. Of some 83,000 tested, about 20% had one in any assay.
Each entry below lists one item and its recorded growth value.

MOLECULE	VALUE_UNIT	growth
CCCCCCCCCCCCCCCc1ccc(Cl)c(O)c1Cl (tested in a mixture with another compound)	%	115
Cc1[nH]c(-c2nc3ccccc3[nH]2)c(C)c1C(=O)NC(C)C1CCCCC1 (centres undefined)	%	92.1
O=C(O)c1sccc1O	%	76.5
CCc1ccccc1-n1c(N)c(C#N)c(-c2ccc(OC)c(OC)c2)c(C#N)c1=O	%	113

* * *

Tested on: SR leukemia
Assay: NCI-60 one-dose screen, 48 h
Conditions: 10 µM unless noted
Compounds without any hit were thinned out: in the full panel of roughly 83,000, 20% have a hit. Activity calls are given as the source filed them. The calls were made as follows: active = growth percent below 10; inactive = the rest.
Labels: yes for active, no for inactive

COMPOUND	CLASS_ASSIGNMENT
CCN(CC)C(=O)c1cccnc1	no
Nc1n[nH]c(=S)n1-c1ccc(Cl)cc1	no
O=C1c2ccccc2C(=O)N1/N=C/c1ccc2c(c1)OCO2	no
O=[N+]([O-])c1ccc(-n2[nH]nnc2=S)cc1	no
O=S1(=O)CC(Br)C(Br)C1 (configuration not stated)	no
COc1ccc(NC(=S)Nc2ccccn2)cc1	no
O=C(O)c1cc(C(=O)O)cc([N+](=O)[O-])c1	no
O=C(Oc1cccc(OC(=O)c2ccccc2)c1)c1ccccc1	no
O=C(/C=C\c1ccnc2ccccc12)c1ccc([N+](=O)[O-])cc1	yes
Nc1nc2ncc(CNc3ccc(C(=O)N[C@@H](CCc4nn[nH]n4)C(=O)O)cc3)nc2c(=O)[nH]1	no
Nc1ccc2ccc(N)cc2c1	no
O=C1OC(Oc2ccc(Br)cc2)(c2ccccc2)c2ccccc21 (configuration not stated)	no

* * *

Test system: OVCAR-5 ovarian
Experiment: NCI-60 one-dose screen, 48 h (100 = growth as untreated, 0 = no growth, -100 = all killed)
Details: 10 µM unless noted
Compounds without any hit were thinned out: in the full panel of roughly 83,000, 20% have a hit.
Each entry below lists one item and its recorded growth value.

COMPOUND	VALUE_UNIT	growth
N=C1N=C(N)CS1	%	109
CC12CCC(CC1)C(C)(C)O2	%	94.3
Cc1ncsc1CCO	%	103
Clc1nc(Oc2ccccc2)nc(-c2cn(-c3ccccc3)c3ccccc23)n1	%	101
NS(=O)(=O)c1cc2c(cc1Cl)NC(C(Cl)Cl)NS2(=O)=O (stereo not drawn)	%	96.6
O=C1c2c(O)cc(O)cc2OC(c2ccc(O)c(O)c2)C1O (stereo not drawn)	%	104
NCCSC(C[N+](=O)[O-])c1ccccc1Cl (stereo not drawn)	%	99.5
CC(=O)C(/C=N/C(N)=O)=C(/C)O	%	109
CC(C)C(=O)Nc1ccc([N+](=O)[O-])c(C(F)(F)F)c1	%	90.4
Cc1ccc(-c2noc(C)n2)cc1	%	98.9
c1ccc(N(c2ccccc2)c2ccccc2)cc1	%	104
COc1ccc(NC(=S)Nc2ccccn2)cc1	%	97.7
Nc1n[nH]c(=S)n1-c1ccc(Cl)cc1	%	98.6

* * *

Tested on: M14 melanoma
Experiment: NCI-60 one-dose screen, 48 h (100 = growth as untreated, 0 = no growth, -100 = all killed)
Conditions: 10 µM unless noted
Compounds without any hit were thinned out: in the full panel of roughly 83,000, 20% have a hit.

STRUCTURE	growth, %
N=C1N=C(N)CS1	108
Nc1n[nH]c(=S)n1-c1ccc(Cl)cc1	101
CCCCCCCCCCCCOc1ccccc1C=O	101
Cc1ccc2nc3c(nc2c1)-c1cccc2cccc-3c12	102
Cc1ccc(S(=O)(=O)NCN2C(=O)c3ccccc3C2=O)cc1	109
O=[N+]([O-])c1ccc2nc3c4ccccc4c4ccccc4c3nc2c1	90.3
O=C(CCc1ccc(O)cc1)N/N=C/c1cc(Br)ccc1O	39.9

* * *

Test system: UACC-62 melanoma
Assay: NCI-60 one-dose screen, 48 h
Conditions: 10 µM unless noted
The panel holds about 83,000 compounds, 20% with a hit somewhere; the sample as a whole holds those more often. Active and inactive are the calls of the source. How the source made its calls: active means growth percent below 10; inactive means the rest.
Labels: Y for active, N for inactive

STRUCTURE	TARGET_UNDER_TEST	CLASS_ASSIGNMENT
CCCCCCCCCCCCOc1ccccc1C=O	UACC-62 melanoma	N
O=C(Cc1cccc2ccccc12)N/N=C/c1ccc2c(c1)CCC2	UACC-62 melanoma	N
CCN(CC)C(=O)c1cccnc1	UACC-62 melanoma	N
Nc1n[nH]c(=S)n1-c1ccc(Cl)cc1	UACC-62 melanoma	N
CCOc1cc2c(cc1O)/C(=N/NS(=O)(=O)c1ccc(C)cc1)C[C@@H]1[C@@H]2CC[C@]2(C)[C@@H](O)CC[C@@H]12	UACC-62 melanoma	Y
CCCCCCCCCCCCCCCc1cc(O)ccc1N	UACC-62 melanoma	N
O=C(N/N=C/c1ccccc1)N/N=C/c1ccccc1	UACC-62 melanoma	N

* * *

Test system: SF-539 CNS
Experiment: NCI-60 one-dose screen, 48 h (100 = growth as untreated, 0 = no growth, -100 = all killed)
Conditions: 10 µM
The panel holds about 83,000 compounds, 20% with a hit somewhere; the sample as a whole holds those more often.

COMPOUND	growth [%]
CC1(C)OB(c2ccc(Cn3cc(F)c(=O)[nH]c3=O)cc2)OC1(C)C	101
O=C(O)c1sccc1O	85.4
CNC(=O)c1cc(Oc2ccc(CC(=O)Nc3cc(C(C)(C)C)nn3C)cc2)ccn1	66.7
Cc1[nH]c(-c2nc3ccccc3[nH]2)c(C)c1C(=O)NC(C)C1CCCCC1 (centres undefined)	89.4

* * *

System: SF-295 CNS
Assay: NCI-60 one-dose screen, 48 h (100 = growth as untreated, 0 = no growth, -100 = all killed)
Conditions: 10 µM unless noted
About 83,000 compounds went through this panel and 20% of them were active in at least one assay; those are over-represented in the sample as a whole.
VALUE_TYPE: growth (%)

MOLECULE	VALUE_UNIT	VALUE_REPORTED
COc1ccc2ccccc2c1/C=N/N1CCCCC1	%	96.4
O=CC(O)C(O)C(O)CO (stereo not drawn)	%	121
Clc1nc(Oc2ccccc2)nc(-c2cn(-c3ccccc3)c3ccccc23)n1	%	86.2
O=C(O)CSCc1nc2ccccc2[nH]1	%	112
C1CCCCNCCC1	%	104
COc1cc(NS(C)(=O)=O)ccc1Nc1c2ccccc2nc2c(C)cccc12	%	-24.8
COc1ccccc1/C=N\N=C(N/N=C/c1ccccc1OC)N/N=C/c1ccccc1OC	%	52.1
Nc1ccccc1Nc1ccccc1	%	98.4
OCc1ccccn1	%	94.7
O[C@H](c1cc(C(F)(F)F)nc2c(C(F)(F)F)cccc12)[C@@H]1CCCCN1	%	93.6
CCC(=O)C(CC)c1cccc(OC)c1 (stereo not drawn)	%	100
NCCSC(C[N+](=O)[O-])c1ccccc1Cl (stereo not drawn)	%	101
CCN(CC)C(=O)c1cccnc1	%	99.8
Nc1ccc2[nH]c(-c3ccccc3)cc(=O)c2c1	%	93.5
CNC(=O)c1cccnc1	%	100
Cc1ccc(-c2noc(CC(=O)c3ccc([N+](=O)[O-])cc3)n2)cc1	%	99
CC(CN=Cc1ccccc1O)N=Cc1ccccc1O (stereo not drawn)	%	112
CC(=O)C(/C=N/C(N)=O)=C(/C)O	%	101
c1ccc(N(c2ccccc2)c2ccccc2)cc1	%	92
O=[N+]([O-])c1ccc(/C=N\NC(=S)Nc2ccc(F)cc2)cc1	%	102
CCOC(=O)C(CNc1ccccc1)C(=O)OCC	%	101
COc1ccc(NC(=S)Nc2ccccn2)cc1	%	94.6
O=C(O)CCCCc1ccc([N+](=O)[O-])cc1	%	113
CC(O)Cn1cnc2c1c(=O)n(C)c(=O)n2C (stereo not drawn)	%	109
CC1(c2ccc3ccccc3c2)CCC(=O)O1 (stereo not drawn)	%	107
CC12CCC(CC1)C(C)(C)O2	%	91
O=C1c2c(O)cc(O)cc2OC(c2ccc(O)c(O)c2)C1O (stereo not drawn)	%	119
COc1ccccc1C(C)=O	%	106

All values here come from PubChem BioAssay (NCI).
